System: ATS189
protocol: qHTS profiling for inhibitors of Plasmodium falciparum proliferation (AID 504749); note: nearly all actives have a fitted effect of over 60% in size
experimentalParameters: P. falciparum in erythrocytes, SYBR Green DNA, 72 h; series mostly up to 28.7 µM
Records with an inconclusive call do not appear. Active and inactive are the calls of the source. Calls come from the whole dose curve; as a rule, active = well fitted inhibition curve with a large enough effect; inconclusive = small, poorly fitted or top-dose-only effect; inactive = flat fitted curve, though single readings scatter.
Labels: active, inactive

[
  {
    "molecule": "C[C@](O)(CS(=O)(=O)c1ccc(F)cc1)C(=O)Nc1ccc(C#N)c(C(F)(F)F)c1",
    "category": "inactive"
  },
  {
    "molecule": "CC(C)NC(C)C",
    "category": "inactive"
  },
  {
    "molecule": "CN1C(=O)COc2c(C(=O)NC3CN4CCC3CC4)cc(Cl)cc21 (centres undefined)",
    "category": "inactive"
  },
  {
    "molecule": "O=C(O)CCCc1ccc(N(CCCl)CCCl)cc1",
    "category": "inactive"
  },
  {
    "molecule": "Nc1nc(N)nc(NC2CC2)n1",
    "category": "inactive"
  },
  {
    "molecule": "CCCCCCCCCC(=O)O[C@H]1CC[C@H]2[C@@H]3CCC4=CC(=O)CC[C@@H]4[C@H]3CC[C@]12C",
    "category": "inactive"
  },
  {
    "molecule": "O=C1OC(c2ccc(O)c(S(=O)(=O)O)c2)(c2ccc(O)c(S(=O)(=O)O)c2)c2c(Br)c(Br)c(Br)c(Br)c21",
    "category": "inactive"
  },
  {
    "molecule": "COc1ccc2c(c1)C13CCCC[C@@H]1C(C2)N(C)CC3 (some centres undefined)",
    "category": "inactive"
  },
  {
    "molecule": "O=C(N/N=C/c1ccc([N+](=O)[O-])o1)c1cc([N+](=O)[O-])cc([N+](=O)[O-])c1O",
    "category": "active"
  },
  {
    "molecule": "CC(C)c1cccc(C(C)C)c1O",
    "category": "inactive"
  },
  {
    "molecule": "Cc1ncsc1CCCl",
    "category": "inactive"
  },
  {
    "molecule": "COC1CC(=C(c2cccs2)c2cccs2)C[N+](C)(C)C1 (centres undefined)",
    "category": "active"
  },
  {
    "molecule": "COP(=S)(OC)Oc1ccc(SC)c(C)c1",
    "category": "inactive"
  },
  {
    "molecule": "CN1C(=O)C(O)N=C(c2ccccc2)c2cc(Cl)ccc21 (centres undefined)",
    "category": "inactive"
  },
  {
    "molecule": "c1ccc2c(c1)sc1ccccc12",
    "category": "inactive"
  },
  {
    "molecule": "CCOC(=O)CC(SP(=S)(OC)OC)C(=O)OCC (centres undefined)",
    "category": "inactive"
  },
  {
    "molecule": "CNC(C)(C)Cc1ccccc1",
    "category": "inactive"
  },
  {
    "molecule": "CN1C(=O)CC(=O)N(c2ccccc2)c2cc(Cl)ccc21",
    "category": "inactive"
  },
  {
    "molecule": "COc1c2c(cc3c1OCO3)CCN(C)C2",
    "category": "inactive"
  },
  {
    "molecule": "CN1C[C@H](C(=O)N[C@]2(C)O[C@@]3(O)[C@@H]4CCCN4C(=O)[C@H](Cc4ccccc4)N3C2=O)C=C2c3cccc4[nH]cc(c34)C[C@H]21",
    "category": "active"
  },
  {
    "molecule": "C=C(C)[C@H]1CN[C@H](C(=O)O)[C@H]1CC(=O)O",
    "category": "inactive"
  },
  {
    "molecule": "Clc1ccc2c(c1)C(c1ccccc1)=NCc1nncn1-2",
    "category": "inactive"
  },
  {
    "molecule": "NC(=O)CS(=O)C(c1ccccc1)c1ccccc1 (centres undefined)",
    "category": "inactive"
  },
  {
    "molecule": "COP(=S)(OC)SCN1C(=O)c2ccccc2C1=O",
    "category": "inactive"
  }
]
